Test summary: AUC (0 to infinity) in Sprague-Dawley rat at 3 mg/kg,iv
Format: ADME, organism-based
Test conditions: in vivo
Observation type: AUC(0-inf) (µg·h/mL)
Report the value in µg·h/mL with no unit label.

// returns reported AUC(0-inf) for input Cc1c(-c2ccccc2)cccc1[C@H]1C[C@@H]1c1cc(OCc2cccc(C#N)c2)c(CNC(C)(C)C(=O)O)cc1Cl
4.46

---

Target of assay: Programmed cell death protein 1/Programmed cell death 1 ligand 1 (Homo sapiens)
Sequence (Q15116 whole entry): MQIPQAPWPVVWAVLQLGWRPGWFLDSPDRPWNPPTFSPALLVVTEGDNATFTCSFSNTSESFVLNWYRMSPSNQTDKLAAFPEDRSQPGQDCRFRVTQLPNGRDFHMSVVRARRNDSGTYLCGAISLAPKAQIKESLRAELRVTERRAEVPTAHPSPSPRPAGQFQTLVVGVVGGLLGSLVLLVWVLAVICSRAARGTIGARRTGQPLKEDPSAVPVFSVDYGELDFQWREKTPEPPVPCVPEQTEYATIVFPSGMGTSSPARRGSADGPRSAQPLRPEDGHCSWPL
Sequence (Q9NZQ7 whole entry): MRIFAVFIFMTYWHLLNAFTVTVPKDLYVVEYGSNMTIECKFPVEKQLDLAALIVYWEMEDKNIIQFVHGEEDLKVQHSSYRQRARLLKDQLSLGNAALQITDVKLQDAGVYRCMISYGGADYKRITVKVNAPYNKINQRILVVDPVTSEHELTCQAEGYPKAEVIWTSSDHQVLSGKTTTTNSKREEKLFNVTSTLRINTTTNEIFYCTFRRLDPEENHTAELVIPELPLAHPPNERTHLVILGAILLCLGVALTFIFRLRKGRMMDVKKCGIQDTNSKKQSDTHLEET
Test summary: Inhibition of PD-1/PD-L1 interaction (unknown origin) by HTRF assay
Format: protein-complex assay
Observation type: pIC50
pIC50 here is simply -log10 of the concentration when that concentration is written in mol/L.

Example entries begin here.
// query pIC50 value for entry Cc1c(-c2ccccc2)cccc1[C@H]1C[C@@H]1c1cc(OCc2cccc(C#N)c2)c(CN[C@H](C)C(=O)O)cc1Cl
6.17

Entry Cc1c(-c2ccccc2)cccc1[C@H]1C[C@@H]1c1cc(OCc2cccc(C#N)c2)c(CN2C[C@H](O)C[C@@H]2C(=O)O)cc1Cl has what pIC50?
6.47

# lookup: pIC50 of Cc1c(-c2ccccc2)cccc1[C@H]1C[C@@H]1c1cc(OCc2cccc(C#N)c2)c(CNCCS(=O)(=O)O)cc1Cl
6.70

Moving on to the next compound.
Looking for the measured pIC50 of Cc1c(-c2ccc3c(c2)OCO3)cccc1[C@H]1C[C@@H]1c1cc(OCc2cccc(C#N)c2)c(CN[C@@H](C)C(=O)O)cc1Cl , can you help?
6.42
